Where do these numbers come from? They come from ChEMBL document CHEMBL5614450.

test: Cytotoxicity against human THP-1 cells assessed as reduction in cell viability incubated for 72 hrs by MTT assay
Assay type: toxicity, cell-based
Consider the following compounds; for each one, report its CC50 at 72 h.

Guide cases for CC50 at 72 h, answers given:
>>> print(df.to_string())
                               linenotation  valuemeasured
0    NNc1ncnc2c(Nc3ccc(OC(F)(F)F)cc3)ncnc12        > 10 µM
1  Oc1ccc(/C=N/Nc2ncnc3c(Nc4ccc(OC(F)(F)F)cc4)ncnc23)cc1O        > 10 µM
2  COc1ccc(Nc2ncnc3c(N/N=C/c4cc(O)c(O)c(O)c4)ncnc23)cc1       > 100 µM
3  Oc1cc(/C=N/Nc2ncnc3c(Nc4ccc(OC(F)(F)F)cc4)ncnc23)cc(O)c1O        > 10 µM

Proceeding to the next compound to report its CC50 at 72 h.
Need CC50 at 72 h, item COc1cc(/C=N/Nc2ncnc3c(Nc4ccc(F)c(Cl)c4)ncnc23)cc(OC)c1OC
> 10 µM

---

targetSystem: hERG (KCNH2) (Homo sapiens)
Sequence (Q12809 whole entry): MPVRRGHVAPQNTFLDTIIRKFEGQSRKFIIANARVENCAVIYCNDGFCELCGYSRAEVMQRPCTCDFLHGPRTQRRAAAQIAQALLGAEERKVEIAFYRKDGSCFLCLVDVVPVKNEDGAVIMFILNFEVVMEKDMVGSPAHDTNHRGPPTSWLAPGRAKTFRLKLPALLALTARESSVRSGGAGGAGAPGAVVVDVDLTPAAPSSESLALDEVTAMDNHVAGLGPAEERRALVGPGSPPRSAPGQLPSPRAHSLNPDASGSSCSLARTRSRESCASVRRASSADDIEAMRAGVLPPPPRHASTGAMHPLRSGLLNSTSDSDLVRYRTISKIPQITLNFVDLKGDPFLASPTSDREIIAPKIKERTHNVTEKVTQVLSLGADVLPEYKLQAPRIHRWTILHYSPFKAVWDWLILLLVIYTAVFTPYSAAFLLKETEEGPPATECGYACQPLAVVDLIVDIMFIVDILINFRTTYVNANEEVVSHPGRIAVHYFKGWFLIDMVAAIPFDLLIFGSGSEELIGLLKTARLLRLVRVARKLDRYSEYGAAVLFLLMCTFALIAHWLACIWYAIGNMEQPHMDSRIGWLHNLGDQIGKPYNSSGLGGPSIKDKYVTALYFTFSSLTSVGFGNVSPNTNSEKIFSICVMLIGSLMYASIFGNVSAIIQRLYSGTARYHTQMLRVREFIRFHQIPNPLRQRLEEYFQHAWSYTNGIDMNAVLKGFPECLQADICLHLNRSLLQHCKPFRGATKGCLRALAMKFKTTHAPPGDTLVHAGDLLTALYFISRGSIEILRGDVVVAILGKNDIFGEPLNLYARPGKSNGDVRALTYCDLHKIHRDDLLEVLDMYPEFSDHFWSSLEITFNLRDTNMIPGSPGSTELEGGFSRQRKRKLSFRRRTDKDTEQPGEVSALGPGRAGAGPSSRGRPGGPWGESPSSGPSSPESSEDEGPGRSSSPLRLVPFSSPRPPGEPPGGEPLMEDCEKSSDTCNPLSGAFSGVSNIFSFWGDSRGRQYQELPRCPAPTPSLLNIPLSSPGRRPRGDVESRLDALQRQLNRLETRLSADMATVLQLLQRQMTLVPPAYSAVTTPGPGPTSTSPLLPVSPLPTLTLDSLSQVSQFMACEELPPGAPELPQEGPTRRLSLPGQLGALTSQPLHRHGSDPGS
test: Displacement of tracer from hERG extracted from membrane at 10 uM incubated for 2 hrs by fluorescence polarization assay
Type: toxicity, cell membranes
conditionInfo: hERG membrane preparation, probe tracer (not named)
Label F if inhibition at 2 h, 10 µM falls below 30%; label T in every other case.

A selection of reference data follows.
                               linenotation                 targetsystem  classassignment
0  COc1ccc(/C=N/Nc2ncnc3c(Nc4ccc(Cl)c(C(F)(F)F)c4)ncnc23)cc1O  hERG (KCNH2) (Homo sapiens)                F
1           COc1cccc(Nc2ncnc3c(NN)ncnc23)c1  hERG (KCNH2) (Homo sapiens)                F
2  COc1cc(/C=N/Nc2ncnc3c(Nc4ccc(OC(F)(F)F)cc4)ncnc23)cc(OC)c1OC  hERG (KCNH2) (Homo sapiens)                F
3  Oc1ccc(/C=N/Nc2ncnc3c(Nc4ccc(OC(F)(F)F)cc4)ncnc23)cc1O  hERG (KCNH2) (Homo sapiens)                F
4  COc1cc(/C=N/Nc2ncnc3c(Nc4ccc(F)c(Cl)c4)ncnc23)ccc1O  hERG (KCNH2) (Homo sapiens)                F
5  COc1cc(/C=N/Nc2ncnc3c(Nc4ccc(F)c(Cl)c4)ncnc23)cc(OC)c1OC  hERG (KCNH2) (Homo sapiens)                F

Answer whether inhibition at 2 h, 10 µM of Oc1cc(/C=N/Nc2ncnc3c(Nc4ccc(F)c(Cl)c4)ncnc23)cc(O)c1O is greater than or equal to 30%.
T

Does inhibition at 2 h, 10 µM meet or surpass 30% for COc1cc(/C=N/Nc2ncnc3c(Nc4ccc(OC(F)(F)F)cc4)ncnc23)ccc1O ?
T

Form field: inhibition at 2 h, 10 µM at least 30%? Entry: COc1cccc(Nc2ncnc3c(N/N=C/c4ccc(OC)c(OC)c4)ncnc23)c1
T

---

targetSystem: hERG (KCNH2) (Homo sapiens)
test: Displacement of tracer from hERG extracted from membrane at 10 uM incubated for 2 hrs by fluorescence polarization assay
Format: toxicity, cell membranes
conditionInfo: hERG membrane preparation, probe tracer (not named)
1 means recorded inhibition at 2 h, 10 µM is 20% or above; -1 means it is below 20%.

In [3]: df
Out[3]:
                               linenotation  classassignment
0    NNc1ncnc2c(Nc3ccc(OC(F)(F)F)cc3)ncnc12                1
1  COc1cccc(Nc2ncnc3c(N/N=C/c4cc(O)c(O)c(O)c4)ncnc23)c1                1
2  COc1cc(/C=N/Nc2ncnc3c(Nc4ccc(F)c(Cl)c4)ncnc23)cc(OC)c1O                1
3  Oc1cc(/C=N/Nc2ncnc3c(Nc4ccc(Cl)c(C(F)(F)F)c4)ncnc23)cc(O)c1O                1
4  Oc1ccc(/C=N/Nc2ncnc3c(Nc4ccc(F)c(Cl)c4)ncnc23)cc1O               -1
5           COc1ccc(Nc2ncnc3c(NN)ncnc23)cc1               -1
6  Oc1ccc(/C=N/Nc2ncnc3c(Nc4ccc(Cl)c(C(F)(F)F)c4)ncnc23)cc1O                1
7  COc1cccc(Nc2ncnc3c(N/N=C/c4ccc(O)c(O)c4)ncnc23)c1               -1
8  COc1cc(/C=N/Nc2ncnc3c(Nc4ccc(Cl)c(C(F)(F)F)c4)ncnc23)cc(OC)c1O               -1
9  COc1cc(/C=N/Nc2ncnc3c(Nc4ccc(Cl)c(C(F)(F)F)c4)ncnc23)cc(OC)c1OC                1

Reported inhibition at 2 h, 10 µM at or above 20%? COc1ccc(/C=N/Nc2ncnc3c(Nc4ccc(F)c(Cl)c4)ncnc23)cc1O
-1

Please indicate if the recorded inhibition at 2 h, 10 µM for COc1ccc(Nc2ncnc3c(N/N=C/c4cc(O)c(O)c(O)c4)ncnc23)cc1 meets or exceeds 20%.
1

Does the reported inhibition at 2 h, 10 µM for COc1ccc(Nc2ncnc3c(N/N=C/c4ccc(O)c(O)c4)ncnc23)cc1 fall at or above the 20% mark?
1

Identify whether the reported inhibition at 2 h, 10 µM of the following compound is 20% or greater: COc1ccc(Nc2ncnc3c(N/N=C/c4ccc(OC)c(OC)c4)ncnc23)cc1
-1

Determine whether measured inhibition at 2 h, 10 µM meets or exceeds 20% for COc1ccc(/C=N/Nc2ncnc3c(Nc4ccc(OC(F)(F)F)cc4)ncnc23)cc1O
1

---

test: Selectivity index, ratio of CC50 for cytotoxicity against human THP-1 cells to IC50 for anti-leishmanial activity against luciferase expressing intracellular amastigote stage of Leishmania infantum MHOM/MA/67/ITMAP-263 infected in human THP-1 cells
Assay type: toxicity, cell-based
conditionInfo: read-out: Ratio CC50/IC50
Provide the reported selectivity ratio of each item.
Give bare numbers.

                               linenotation  valuemeasured
0  CCCCCCCCCCCCCCCCOP(=O)([O-])OCC[N+](C)(C)C             42

Here is another compound to look at.
If you can, please state the reported selectivity ratio value of COc1cccc(Nc2ncnc3c(N/N=C/c4ccc(O)c(O)c4)ncnc23)c1 .
6

---

Tested on: Leishmania infantum
test: Anti-leishmanial activity against luciferase expressing intracellular amastigote stage of Leishmania infantum MHOM/MA/67/ITMAP-263 infected in human THP-1 cells assessed as inhibition of parasite growth at 10 uM incubated for 72 hrs by Steady-Glo luciferase assay
Type: functional
conditionInfo: MHOM/MA/67/ITMAP-263, THP-1
1 means recorded inhibition at 10 µM is 80% or above; -1 means it is below 80%.

Answered cases to consult:
In [3]: df
Out[3]:
                                   molecule  classassignment
0  COc1ccc(Nc2ncnc3c(N/N=C/c4cc(O)c(O)c(O)c4)ncnc23)cc1               -1
1  COc1cccc(Nc2ncnc3c(N/N=C/c4ccc(OC)c(OC)c4)ncnc23)c1               -1
2  CCCCCCCCCCCCCCCCOP(=O)([O-])OCC[N+](C)(C)C [MILTEFOSINE]                1

Say whether Oc1ccc(/C=N/Nc2ncnc3c(Nc4ccc(OC(F)(F)F)cc4)ncnc23)cc1O shows inhibition at 10 µM of 80% or more.
-1

---

test: Selectivity index, ratio of CC50 for cytotoxicity against human THP-1 cells to IC50 for anti-trypanosomal activity against trypomastigote blood stage of Trypanosoma brucei Lister 427
Format: toxicity, cell-based
conditionInfo: read-out: Ratio CC50/IC50
metric: selectivity ratio

Consider the worked cases shown below.
>>> df
                               linenotation  valuemeasured
0  COc1cc(/C=N/Nc2ncnc3c(Nc4ccc(F)c(Cl)c4)ncnc23)cc(OC)c1O           > 17
1  COc1cccc(Nc2ncnc3c(N/N=C/c4ccc(O)c(O)c4)ncnc23)c1           > 39
2  COc1cccc(Nc2ncnc3c(N/N=C/c4cc(O)c(O)c(O)c4)ncnc23)c1           > 37
3  COc1cc(/C=N/Nc2ncnc3c(Nc4ccc(Cl)c(C(F)(F)F)c4)ncnc23)cc(OC)c1OC            > 6
4           COc1ccc(Nc2ncnc3c(NN)ncnc23)cc1           > 71
5  COc1cc(/C=N/Nc2ncnc3c(Nc4ccc(F)c(Cl)c4)ncnc23)cc(OC)c1OC            > 1

Quick one: give me selectivity ratio for each item below, same order please.
1. COc1cccc(Nc2ncnc3c(NN)ncnc23)c1
2. COc1ccc(Nc2ncnc3c(N/N=C/c4ccc(O)c(O)c4)ncnc23)cc1
3. COc1cc(/C=N/Nc2ncnc3c(Nc4ccc(OC(F)(F)F)cc4)ncnc23)ccc1O
4. COc1ccc(/C=N/Nc2ncnc3c(Nc4ccc(F)c(Cl)c4)ncnc23)cc1O
5. COc1cccc(Nc2ncnc3c(N/N=C/c4ccc(OC)c(OC)c4)ncnc23)c1
6. NNc1ncnc2c(Nc3ccc(OC(F)(F)F)cc3)ncnc12
7. Oc1cc(/C=N/Nc2ncnc3c(Nc4ccc(OC(F)(F)F)cc4)ncnc23)cc(O)c1O

["> 438", "> 182", "> 54", "> 2", "> 38", "> 55", "> 64"]

For every item below, please supply its selectivity ratio.
1. COc1cc(/C=N/Nc2ncnc3c(Nc4ccc(F)c(Cl)c4)ncnc23)ccc1O
2. COc1ccc(Nc2ncnc3c(N/N=C/c4cc(O)c(O)c(O)c4)ncnc23)cc1
3. COc1cc(/C=N/Nc2ncnc3c(Nc4ccc(Cl)c(C(F)(F)F)c4)ncnc23)cc(OC)c1O

["> 196", "> 185", "> 2"]

# map each compound to its selectivity ratio
1. COc1ccc(Nc2ncnc3c(N/N=C/c4ccc(OC)c(OC)c4)ncnc23)cc1
2. Oc1ccc(/C=N/Nc2ncnc3c(Nc4ccc(OC(F)(F)F)cc4)ncnc23)cc1O
3. COc1ccc(/C=N/Nc2ncnc3c(Nc4ccc(Cl)c(C(F)(F)F)c4)ncnc23)cc1O
4. Oc1cc(/C=N/Nc2ncnc3c(Nc4ccc(Cl)c(C(F)(F)F)c4)ncnc23)cc(O)c1O

1: > 41; 2: > 29; 3: > 7; 4: > 4
